Values were extracted from patent US20250019335A1.

For each of the compounds below, state its IC50.
experimental-target: BRD2(BD2) (Homo sapiens)
Construct: a mixture of 100 nM GST BRD2 (BD1, BD2, BD1+BD2) and 100 nM biotinylated acetyl histone H4
Sequence (P25440 344-453 limits assumed, species assumed): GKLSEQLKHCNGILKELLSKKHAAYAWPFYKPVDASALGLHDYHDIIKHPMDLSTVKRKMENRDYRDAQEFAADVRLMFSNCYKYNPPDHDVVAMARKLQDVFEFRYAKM
measurement-description: Binding inhibition ability test for BRD2 protein (AlphaScreen, GST BRD2 / biotinylated acetyl histone H4 peptide)
condition-notes: 100 nM GST BRD2, 100 nM biotinylated acetyl histone H4 (Lys5, 8, 12, 16) peptide, Alpha Screen
Quick reminder: number only, in nM, skip the unit.

Need IC50, item O=C1c2ccc(-c3ccc(O)c(O)c3)cc2C(=O)c2c(O)ccc(O)c21
4440

Need IC50, item O=C1c2ccccc2C(=O)c2c(OC3COC3)ccc(O)c21
3120

Need IC50, item O=C1c2ccccc2C(=O)c2c3c(cc(O)c21)OCCO3
2730

Need IC50, item O=C1c2ccccc2C(=O)c2c(O)c(-c3ccc(O)c(O)c3)cc(O)c21
1740

Need IC50, item O=C1c2ccccc2C(=O)c2c(O)cc(-c3ccc(O)c(O)c3)cc21
1750
